TARGET OR SYSTEM: Dickkopf-related protein 1 (Homo sapiens) (UniProt O94907)
Sequence (O94907 whole entry, looked up): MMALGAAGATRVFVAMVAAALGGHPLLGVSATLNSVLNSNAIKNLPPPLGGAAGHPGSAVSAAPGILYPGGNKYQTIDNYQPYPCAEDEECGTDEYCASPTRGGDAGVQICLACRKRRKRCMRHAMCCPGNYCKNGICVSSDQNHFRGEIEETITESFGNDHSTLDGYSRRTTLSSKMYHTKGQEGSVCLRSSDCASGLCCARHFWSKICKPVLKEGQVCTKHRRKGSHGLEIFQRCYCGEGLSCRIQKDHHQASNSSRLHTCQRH
PROCEDURE SUMMARY: small molecules binding DKK1 protein – biochemical, small-molecule microarray, 635 nm fluorescence scan, primary screen (AID 1106);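 note: score merges emission near 667 nm with signal to noise over three replicate slides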
TEST SETTINGS: higher = more signal
Listed below: composite z-score values for each entry.

| STRUCTURE SMILES | TARGET OR SYSTEM | composite z-score |
| --- | --- | --- |
| COC(=O)[C@@]1(Cc2ccccc2)[C@H]2c3cc(C(=O)N(C)C)n(Cc4ccc(C)o4)c3C[C@H]2CN1C(=O)c1ccccc1 | Dickkopf-related protein 1 (Homo sapiens) (UniProt O94907) | -1.11 |
| COCCOC(=O)N1C(=O)[C@@]2(c3cc(C#CCCO)ccc31)[C@H](c1ccc(OCCO)cc1)N1[C@H](c3ccccc3)[C@H](c3ccccc3)OC(=O)[C@H]1[C@@H]2C(=O)Nc1nc2ccccc2s1 | Dickkopf-related protein 1 (Homo sapiens) (UniProt O94907) | 0.87 |
| [N-]=[N+]=Nc1ccccc1C[C@]1(C(=O)N2CCOCC2)COC(c2ccc(OCCCO)cc2)=N1 | Dickkopf-related protein 1 (Homo sapiens) (UniProt O94907) | -0.259 |
| CCCC[C@@H]1C[C@H]1[C@@H](NC(=O)c1cccs1)c1ccccc1C(F)(F)F | Dickkopf-related protein 1 (Homo sapiens) (UniProt O94907) | -0.291 |

====

TARGET OR SYSTEM: Torsin-1A-interacting protein 2 (Homo sapiens) (UniProt Q8NFQ8)
Sequence (Q8NFQ8 whole entry, looked up): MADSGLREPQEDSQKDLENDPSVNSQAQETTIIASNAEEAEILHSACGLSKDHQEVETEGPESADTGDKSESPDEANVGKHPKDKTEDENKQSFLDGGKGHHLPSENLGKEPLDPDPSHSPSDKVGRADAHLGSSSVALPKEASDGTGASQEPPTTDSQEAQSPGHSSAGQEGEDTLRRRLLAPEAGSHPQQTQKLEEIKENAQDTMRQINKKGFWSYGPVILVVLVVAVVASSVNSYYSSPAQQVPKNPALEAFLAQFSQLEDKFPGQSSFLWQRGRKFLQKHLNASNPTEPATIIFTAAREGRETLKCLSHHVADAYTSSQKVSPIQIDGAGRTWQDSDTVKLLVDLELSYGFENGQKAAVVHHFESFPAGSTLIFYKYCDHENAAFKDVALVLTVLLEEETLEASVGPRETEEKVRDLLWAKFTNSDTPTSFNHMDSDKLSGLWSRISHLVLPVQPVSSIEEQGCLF
PROCEDURE SUMMARY: small molecules binding lysate-expressed LULL1 – cell lysate, human LULL1 lysate, 635/667 nm fluorescence, primary screen (AID 1092);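 note: probe is lysate of COS7 cells overexpressing human LULL1; score merges per-feature 667 nm fluorescence with signal-to-noise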
TEST SETTINGS: small-molecule microarray, hLULL1 lysate binding, 635 nm fluorescence; higher = more signal
Classify on composite z-score using lower: < 0.9; middle: ≥ 0.9 and < 3; upper: ≥ 3

| COMPOUND | TARGET OR SYSTEM | GROUP LABEL |
| --- | --- | --- |
| C=CC[C@@]1(C(=O)NCCCOC)N=C(c2ccc(OCCCO)cc2)O[C@@H]1c1ccccc1 | Torsin-1A-interacting protein 2 (Homo sapiens) (UniProt Q8NFQ8) | upper |
| COCCOC(=O)N1C(=O)[C@@]2(c3cc(C#CC4=CCCCC4)ccc31)[C@H](C(=O)Nc1nc3ccccc3s1)[C@H]1C(=O)O[C@H](c3ccccc3)[C@H](c3ccccc3)N1[C@@H]2c1ccc(O)cc1 | Torsin-1A-interacting protein 2 (Homo sapiens) (UniProt Q8NFQ8) | middle |
| O=c1cccc(-c2ccc([N+](=O)[O-])cc2)o1 | Torsin-1A-interacting protein 2 (Homo sapiens) (UniProt Q8NFQ8) | lower |
| CC(C)c1ccc(NN2C(C(O)c3ccc(C#N)cc3)C=CC3C(=O)N(c4ccccc4)C(=O)C32)cc1 (stereo unspecified) | Torsin-1A-interacting protein 2 (Homo sapiens) (UniProt Q8NFQ8) | upper |
| CC(C)[Si]1(C(C)C)OCc2cc(C3CC3)nc(-c3ccc(Oc4ccccc4)cc3)c21 | Torsin-1A-interacting protein 2 (Homo sapiens) (UniProt Q8NFQ8) | lower |
| CCCC=C(CCC)[C@@H](NS(=O)(=O)c1ccc(C(F)(F)F)cc1)c1ccccc1 | Torsin-1A-interacting protein 2 (Homo sapiens) (UniProt Q8NFQ8) | middle |
| CCCN1C(=O)[C@]2(Cc3ccccc31)N=C(c1ccc(OCCCO)cc1)O[C@@H]2c1ccccc1 | Torsin-1A-interacting protein 2 (Homo sapiens) (UniProt Q8NFQ8) | middle |
| CCCC=C(CCC)[C@@H](NC(=O)C(C)(C)C)c1ccc(C(=O)OC)cc1 | Torsin-1A-interacting protein 2 (Homo sapiens) (UniProt Q8NFQ8) | upper |
| CCOC(=O)C1=C[C@@H](c2ccccc2)N(S(=O)(=O)c2ccc(C)cc2)[C@H]1c1ccc(OC)cc1 | Torsin-1A-interacting protein 2 (Homo sapiens) (UniProt Q8NFQ8) | middle |
| CCOC(=O)C1=CC[C@@H](c2ccccc2F)N(S(=O)(=O)c2ccc(C)cc2)[C@H]1c1ccccc1 | Torsin-1A-interacting protein 2 (Homo sapiens) (UniProt Q8NFQ8) | middle |
| CC1=C2[C@@H](CCc3ccccc3)OB(O)C[C@@H]2[C@@H]2C(=O)N(Cc3ccccc3)C(=O)[C@@H]2C1 | Torsin-1A-interacting protein 2 (Homo sapiens) (UniProt Q8NFQ8) | middle |
| NC(=O)NCC#Cc1ccc2c(c1)[C@]1(C(=O)N2)[C@H](c2ccccc2OCCO)N2[C@H](c3ccccc3)[C@H](c3ccccc3)OC(=O)[C@H]2[C@@H]1C(=O)NC[C@H](O)c1ccccc1 | Torsin-1A-interacting protein 2 (Homo sapiens) (UniProt Q8NFQ8) | middle |
| CC(C)[Si](C#C[Si](C(C)C)(C(C)C)C(C)C)(O[C@H](c1ccccc1)c1cn(Cc2ccccc2)nn1)C(C)C | Torsin-1A-interacting protein 2 (Homo sapiens) (UniProt Q8NFQ8) | lower |
| C=C(C(=O)CC[C@H](OC(=O)c1ccccc1-c1ccccc1C(=O)O)c1cccc(OCCO)c1)C(C)C | Torsin-1A-interacting protein 2 (Homo sapiens) (UniProt Q8NFQ8) | lower |
| COC(=O)[C@@]1(Cc2ccccc2)[C@H]2c3cc(C(=O)N4CCCC4)n(CCc4ccccn4)c3C[C@H]2CN1C(=O)c1ccccc1 | Torsin-1A-interacting protein 2 (Homo sapiens) (UniProt Q8NFQ8) | upper |
| COCC(=C=CC[C@H](O)c1ccc(OCCO)cc1)CCO | Torsin-1A-interacting protein 2 (Homo sapiens) (UniProt Q8NFQ8) | middle |
| [N-]=[N+]=Nc1ccccc1C[C@]1(C(=O)NCC(O)CO)COC(c2ccc(OCCCO)cc2)=N1 (stereo partly specified) | Torsin-1A-interacting protein 2 (Homo sapiens) (UniProt Q8NFQ8) | upper |
| CC[C@@H]1O[Si](C(C)C)(C(C)C)c2c1cc(-c1cc(C)c(OC)c(C)c1)nc2-c1ccc(Oc2ccccc2)cc1 | Torsin-1A-interacting protein 2 (Homo sapiens) (UniProt Q8NFQ8) | lower |
| CS(=O)(=O)CCOC(=O)C1=CC(CCCO)=CC(c2ccc(CN3CCCC3)cc2)N(Cc2sc3ccccc3c2Cl)C=C1C(=O)OCCS(C)(=O)=O (stereo unspecified) | Torsin-1A-interacting protein 2 (Homo sapiens) (UniProt Q8NFQ8) | middle |
| CCOC(=O)C[C@H]1[C@H](OC(=O)c2ccccc2-c2ccccc2)[C@@H](NC(=O)c2ccc3ccccc3n2)c2cc(OCCCO)ccc2N1C(=O)Cc1ccc(OC)cc1 | Torsin-1A-interacting protein 2 (Homo sapiens) (UniProt Q8NFQ8) | lower |
| COc1ccc(C(=O)Nc2ccc(CN3C(=O)[C@]4(O[C@H](CC(=O)N5Cc6ccccc6C[C@H]5CO)[C@@H]([Si](C)(C)c5ccc(OC)cc5)[C@@H]4C)c4ccccc43)cc2)cc1 | Torsin-1A-interacting protein 2 (Homo sapiens) (UniProt Q8NFQ8) | middle |
| C=CCC(OC(C)=O)[C@@H]1[C@@H](N(Cc2cccc3ccccc23)C(=O)Cc2ccc(F)cc2)c2cc(OCCCO)ccc2N1C(=O)c1ccc2ccccc2c1 (stereo partly specified) | Torsin-1A-interacting protein 2 (Homo sapiens) (UniProt Q8NFQ8) | lower |
| COC(=O)[C@@]1(Cc2ccc(F)cc2)[C@H]2c3cc(C(=O)N(C)C)n(CCc4ccc(OC)c(Br)c4)c3C[C@H]2CN1C(=O)c1ccccc1 | Torsin-1A-interacting protein 2 (Homo sapiens) (UniProt Q8NFQ8) | middle |
| C=C[C@@H](CO)N(Cc1ccc(OC)cc1)S(=O)(=O)c1ccc(Br)cc1 | Torsin-1A-interacting protein 2 (Homo sapiens) (UniProt Q8NFQ8) | lower |
| [N-]=[N+]=Nc1ccccc1[C@@H]1OC(c2ccc(OCCCO)cc2)=N[C@]1(Cc1ccccc1)C(=O)O | Torsin-1A-interacting protein 2 (Homo sapiens) (UniProt Q8NFQ8) | middle |
| O=C1[C@H]2C=C(I)[C@H](C[C@@H]2OCCOCCO)[C@@]12CO2 | Torsin-1A-interacting protein 2 (Homo sapiens) (UniProt Q8NFQ8) | lower |
| CCCCCCCCCCC(O)C1C=CC2C(=O)N(c3ccccc3)C(=O)C2N1Nc1ccc(C#N)cc1 (stereo unspecified) | Torsin-1A-interacting protein 2 (Homo sapiens) (UniProt Q8NFQ8) | upper |
| O[C@@H](Cc1ccccc1)[C@@H](/C=C/C1CC1)N(CC#Cc1ccccc1)Cc1ccccc1Br | Torsin-1A-interacting protein 2 (Homo sapiens) (UniProt Q8NFQ8) | lower |
| CCCCCN1CC=CC23O[C@@H]4/C=C\CCC(C)OC(=O)C4[C@H]2C(=O)N(C(CO)C(C)C)[C@@H]3C1=O (stereo partly specified) | Torsin-1A-interacting protein 2 (Homo sapiens) (UniProt Q8NFQ8) | middle |

====

Listed below: z-score values for each entry.
PROCEDURE SUMMARY: plasmodial surface anion channel blockers, osmotic lysis – cell-based, P. falciparum Indochina, OD700, 18 h, primary screen (AID 1157)
TEST SETTINGS: P. falciparum Indochina infected erythrocytes, osmotic lysis OD700, 18 h; higher = more signal, called active from +8 up or from −8 down
READOUT TYPE: z-score

| COMPOUND | READOUT TYPE | QUANTITATIVE RESULT |
| --- | --- | --- |
| COc1ccc([Si](C)(C)[C@@H]2[C@@H](CCO)O[C@]3(C(=O)N(Cc4ccccc4)c4ccc(N5C(=O)c6cccc7cccc5c67)cc43)[C@H]2C)cc1 | z-score | 1.16 |
| O=C(Cc1ccccc1)[C@H]1C2C=CCCC(c3ccccc3)=C2CN1Cc1ccccc1 (some centres undefined) | z-score | 0.06 |
| CC(CO)N1C(=O)[C@@H]2[C@H]3C(=O)OCC=C[C@H]3OC23C=CCN(Cn2nnc4ccccc42)C(=O)[C@@H]13 (some centres undefined) | z-score | 0.0866 |
| CCCCN1CC=CC23O[C@@H]4/C=C\CCCOC(=O)C4[C@H]2C(=O)N(CCO)[C@@H]3C1=O (some centres undefined) | z-score | 0.628 |
| COC(=O)[C@@]1(Cc2ccc(OC)cc2)[C@H]2c3cc(C(=O)N(C)C)n(Cc4ccc(OC(F)(F)F)cc4)c3C[C@H]2CN1C(=O)c1ccccc1 | z-score | 0.569 |
| NC(=O)NCC#Cc1ccc2c(c1)[C@]1(C(=O)N2)[C@H](c2ccccc2OCCO)N2[C@H](c3ccccc3)[C@H](c3ccccc3)OC(=O)[C@H]2[C@@H]1C(=O)O | z-score | 0.0482 |
| O=C1CS(=O)(=O)C(c2cccc([N+](=O)[O-])c2)N1c1ccccc1 (centres undefined) | z-score | -1.68 |
| [N-]=[N+]=Nc1ccccc1C[C@]1(C(=O)N2CCOCC2)COC(c2ccc(OCCCO)cc2)=N1 | z-score | -0.779 |
| [N-]=[N+]=Nc1ccccc1C[C@@]1(C(N)=O)N=C(c2ccc(OCCCO)cc2)O[C@@H]1c1ccccc1N=[N+]=[N-] | z-score | 1.35 |
| CCCCC(O)C1C=CC2C(=O)N(C)C(=O)C2N1N(c1ccccc1)c1ccccc1 (centres undefined) | z-score | 0.951 |
| C=CCN1C(=O)[C@]2(CCS(=O)(=O)c3ccccc3)N=C(c3ccc(OCCCO)cc3)O[C@@H]2c2ccccc21 | z-score | 4.76 |
| CN(C)C(=O)[C@]1(Cc2ccccc2CN=[N+]=[N-])N=C(c2ccc(OCCCO)cc2)O[C@@H]1c1ccccc1 | z-score | 0.96 |
| CN(C)C(=O)[C@@]1(Cc2ccccc2)N=C(c2ccc(OCCCO)cc2)O[C@H]1c1ccccc1 | z-score | 1.33 |
| Cc1cc(C)c(C(O)C2C=CC3C(=O)N(c4ccccc4)C(=O)C3N2Nc2ccccc2F)c(C)c1 (centres undefined) | z-score | 1.32 |
| CCCC[C@@H](O)C1=C(COc2ccccc2)C[C@H]2C(=O)N(Cc3ccccc3)C(=O)[C@H]2[C@H]1CO | z-score | 0.967 |
| COc1ccc([Si](C)(C)[C@H]2[C@H](CC(=O)N3CCC[C@H]3CO)O[C@@]3(C(=O)N(Cc4ccc(N5CCOC5=O)cc4)c4ccccc43)[C@@H]2C)cc1 | z-score | 0.746 |
| CC(=O)NCCCC[C@@H]1NC(=O)[C@@H]2C[C@H](C(=O)NCCCCCN)[C@H](c3cccc(OCCO)c3)N2C1=O | z-score | -1.27 |
| CO[C@H]1O[C@H](CO)[C@@H](OC(=O)Nc2ccccc2)[C@H](OC(=O)c2cc3ccccc3[nH]2)[C@H]1OC(=O)c1cc2ccccc2[nH]1 | z-score | -0.758 |
| CCCCCCc1nc(Cc2cc(OC)c(OC)c(OC)c2)cc2c1[Si](C(C)C)(C(C)C)OC2 | z-score | -0.718 |
